biological target: nucleolin (NCL) (Homo sapiens, UniProt P19338 1-710); assay: SPR; 70 mM KCl; SPR (Biacore X-100, CM5): 10 mM HEPES, 70 mM KCl, pH 7.4, 25 C; analyte 5-500 uM; two-state reaction fit; conditions: protein: commercial; antiparallel G4, intramolecular
Sequence (P19338 whole entry): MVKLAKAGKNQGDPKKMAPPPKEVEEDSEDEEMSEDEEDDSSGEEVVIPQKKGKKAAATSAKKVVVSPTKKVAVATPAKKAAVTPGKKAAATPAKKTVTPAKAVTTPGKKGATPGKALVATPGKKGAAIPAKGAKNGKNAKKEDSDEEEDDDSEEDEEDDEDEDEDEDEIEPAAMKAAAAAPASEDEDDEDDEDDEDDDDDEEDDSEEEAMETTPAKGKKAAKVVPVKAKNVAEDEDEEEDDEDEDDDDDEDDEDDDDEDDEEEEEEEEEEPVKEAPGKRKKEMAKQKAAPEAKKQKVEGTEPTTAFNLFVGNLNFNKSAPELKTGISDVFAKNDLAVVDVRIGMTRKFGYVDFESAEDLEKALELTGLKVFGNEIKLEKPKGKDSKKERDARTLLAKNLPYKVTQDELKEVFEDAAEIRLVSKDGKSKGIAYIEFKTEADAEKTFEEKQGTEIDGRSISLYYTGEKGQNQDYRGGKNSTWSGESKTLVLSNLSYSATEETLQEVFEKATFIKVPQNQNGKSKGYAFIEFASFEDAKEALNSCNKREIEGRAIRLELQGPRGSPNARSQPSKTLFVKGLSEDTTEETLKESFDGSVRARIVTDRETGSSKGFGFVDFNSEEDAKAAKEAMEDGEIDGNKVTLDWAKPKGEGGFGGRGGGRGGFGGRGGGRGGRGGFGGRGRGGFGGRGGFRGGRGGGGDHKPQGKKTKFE
recorded-metric: Kd (µM)
One number for each entry, in µM.

Task: Indicate its recorded Kd; the binder in question is GGTTGGTGTGGTTGG (structured_DNA) [TBA]
Result: 62.5
